Test system: SYO-1
ASSAY METHOD TEXT: relative viability vs DMSO control (72 h) (fraction); higher = more viable cells
CONDITION NOTES: 1.111 µM
QUANTITY KIND: relative viability
Answers are plain numbers.

[[record]]
chemical_smiles = "CCN(c1cc(-c2ccc(CN3CCOCC3)cc2)cc(C(=O)NCc2c(C)cc(C)[nH]c2=O)c1C)C1CCOCC1"
system_tested = "SYO-1"
endpoint_value = 0.953

[[record]]
chemical_smiles = "C[C@@H]1COC(Nc2ccc3ncnc(Nc4ccc(OCc5nccs5)c(Cl)c4)c3c2)=N1"
system_tested = "SYO-1"
endpoint_value = 1.01


Note: attention shifts to another entry.
relative viability reported for this compound C=CC(=O)Nc1cc(Nc2nccc(-c3cn(C)c4ccccc34)n2)c(OC)cc1N(C)CCN(C)C : 0.576
